assay: Pharmacokinetics in CML patients by dose cohort; settings: human, plasma, po, 174 mg
measured-attribute: AUC(0-t) (ng·h/mL)

In [3]: df
Out[3]:
                            chemical_smiles  output_unit  numeric_value
0  Cc1ccc(C(=O)NNC(=O)c2c(C)cccc2Cl)cc1C#Cc1cnc2ccccc2c1      ng·h/mL          35700

###

experiment: Single ascending dose (SAD) study in healthy male volunteers: pharmacokinetics; format: in vivo, human; conditions: male, human, plasma, oral, 6 mg, 6 mg (N = 6), mean; read-out: AUC(0-last)
measured-attribute: AUC(0-t)

                                   molecule        result
0  Cc1ccc(C(=O)NNC(=O)c2c(C)cccc2Cl)cc1C#Cc1cnc2ccccc2c1 [compound of Formula I]  1570 ng·h/mL
